System: protein sample
Test: Protein quality control screen: melting point temperature vs pH and NaCl concentration
Assay type: physicochemical
Details: pH 8; NaCl Concentration 1.5
observable: protein melting point temperature (°C)
Expressed in °C, but write only the number.

Prompt: Report protein melting point temperature for [Cl-].[Na+] [sodium chloride] please.
Completion: 76

* * *

Test system: protein sample
Test: Protein quality control screen: melting point temperature vs pH and NaCl concentration
Type: physicochemical
Conditions: pH 6.5; NaCl Concentration 2
observable: protein melting point temperature

Prompt: Report protein melting point temperature for [Cl-].[Na+] [sodium chloride] please.
Completion: 78 °C

* * *

System: protein sample
Assay: Protein quality control screen: melting point temperature vs pH and NaCl concentration
Format: physicochemical
Details: pH 6.5; NaCl Concentration 0.5
observable: protein melting point temperature (°C)
Expressed in °C, but write only the number.

Prompt: What measured protein melting point temperature is associated with [Cl-].[Na+] [sodium chloride] on protein sample?
Completion: 76.5
